Tested on: H929 multiple myeloma tumour line
EXPERIMENTAL_DETAILS: In vitro cytotoxicity, Microculture Tetrazolium Assay
Assay type: cell-based
MEASUREMENT_CONTEXT: H929 cells, 48 hours exposure, MTT; read-out: IC50 (μM) MTT H929
Known IC50 of a selection of molecules

* COc1ccccc1CC(Oc1ncnc2sc(-c3ccco3)c(-c3ccc(OC4CCCN(C)C4)c(Cl)c3C)c12)C(=O)O (single isomer, unassigned) [Example 302] | 1.59 µM

Report IC50 for "Cc1c(-c2c(-c3ccco3)sc3ncnc(O[C@H](Cc4ccccc4OCc4ccco4)C(=O)O)c23)ccc(OCCN2CCN(C)CC2)c1Cl" please.
0.205 µM

Reported IC50 for "Cc1c(-c2c(-c3ccco3)sc3ncnc(O[C@H](Cc4ccccc4OCc4ccnc(N)n4)C(=O)O)c23)ccc(OCCN2CCN(C)CC2)c1Cl" : what is it?
0.499 µM
